assay: Cytotoxicity against mouse NIH/3T3 cells assessed as growth inhibition after 48 hrs by sulforhodamine B assay; format: cell-based, NIH3T3
reported_metric: GI50 at 48 h (µM)
Report as a plain number; the unit µM is understood.

The compound identified as "COc1cccc2c1C(=O)c1c(O)c3c(c(O)c1C2=O)C[C@@](O)(C(=O)CO)C[C@@H]3O[C@H]1C[C@H](N)[C@H](O)[C@H](C)O1" registered its GI50 at 48 h at 4
